Taken from patent US20260234232A1.

target: T1, human VEGFA165 (human, UniProt P15692-4 27-191); test: ELISA, coated human VEGFA165, anti-His detection
T1 construct: Bought protein from two suppliers, treated as one molecule; the supplier is named under assay; also called antigen VEGFA
T1 sequence (P15692 other isoform, or with tags, fused parts or gaps limits assumed): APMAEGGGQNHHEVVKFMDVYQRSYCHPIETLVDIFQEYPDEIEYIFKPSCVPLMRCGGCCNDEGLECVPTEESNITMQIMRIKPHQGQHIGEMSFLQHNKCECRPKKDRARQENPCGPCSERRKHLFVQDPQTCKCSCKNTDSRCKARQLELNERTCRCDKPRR

{"columns": ["binder", "EC50, nM"],
 "data": [
  ["2V1-(AP)5 (VHH, Tandem bivalent nanobody) QLQLVESGGGSVQPGGSLRLSCEVSGRTFSSYTMGWFRQAPGKEREFVVAISKGGYKYDSVSLEARFTISKDNTKNTVYLQMNSLKPEDTAVYYCAATRAYGSSRLRLADTYEYWGQGTQVTVSSPDSAPAPAPAPAPDGSSQLQLVESGGGSVQPGGSLRLSCEVSGRTFSSYTMGWFRQAPGKEREFVVAISKGGYKYDSVSLEARFTISKDNTKNTVYLQMNSLKPEDTAVYYCAATRAYGSSRLRLADTYEYWGQGTQVTVSS", 0.19]
]}
